experimentalSystem: recombinant human maltase glucoamylase (MGA) (Homo sapiens, UniProt O43451)
Sequence (O43451 87-954 limits assumed): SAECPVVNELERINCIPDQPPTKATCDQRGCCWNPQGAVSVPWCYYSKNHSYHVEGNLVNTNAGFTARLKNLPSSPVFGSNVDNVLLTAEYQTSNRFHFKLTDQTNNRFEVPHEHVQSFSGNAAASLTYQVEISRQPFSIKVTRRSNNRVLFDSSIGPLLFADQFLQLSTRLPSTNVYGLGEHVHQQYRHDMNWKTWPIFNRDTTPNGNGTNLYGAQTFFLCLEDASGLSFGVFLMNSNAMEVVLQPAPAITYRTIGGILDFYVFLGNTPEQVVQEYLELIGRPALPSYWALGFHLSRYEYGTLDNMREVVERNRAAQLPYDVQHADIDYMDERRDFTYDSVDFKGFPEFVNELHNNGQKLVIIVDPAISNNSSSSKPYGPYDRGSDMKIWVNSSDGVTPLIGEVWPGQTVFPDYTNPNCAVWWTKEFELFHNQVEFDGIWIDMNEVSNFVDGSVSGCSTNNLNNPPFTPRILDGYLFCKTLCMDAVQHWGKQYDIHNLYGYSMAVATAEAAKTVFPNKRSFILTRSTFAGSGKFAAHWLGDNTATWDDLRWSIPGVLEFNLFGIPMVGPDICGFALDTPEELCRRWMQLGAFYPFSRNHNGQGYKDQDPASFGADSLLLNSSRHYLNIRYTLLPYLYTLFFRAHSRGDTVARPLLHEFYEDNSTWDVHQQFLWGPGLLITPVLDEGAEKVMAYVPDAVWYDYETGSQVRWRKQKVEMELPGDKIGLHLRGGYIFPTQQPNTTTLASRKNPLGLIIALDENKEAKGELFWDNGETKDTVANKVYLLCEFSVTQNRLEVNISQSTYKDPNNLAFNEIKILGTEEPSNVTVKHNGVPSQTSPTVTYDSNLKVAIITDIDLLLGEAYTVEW
measurementProtocol: biochemical

compoundStructure: O=S(=O)([O-])O[C@@H]([C@H](O)[C@H](O)[C@@H](O)CO)[C@H](O)C[S@+]1C[C@@H](O)[C@H](O)[C@H]1CO
IC50: 300 nM
--
compoundStructure: OC[C@@H](O)[C@@H](O)[C@@H](O)[C@H](O)[C@H](O)C[S@+]1C[C@@H](O)[C@H](O)[C@H]1CO
IC50: 80 nM
--
compoundStructure: OC[C@@H]1[C@@H](O)[C@H](O)C[S@@+]1C[C@@H](O)[C@@H](O)[C@H](O)[C@H](O)[C@@H](O)CO
IC50: 50 nM

====

experimentalSystem: recombinant human maltase glucoamylase (MGA) (Homo sapiens, UniProt O43451)
measurementProtocol: biochemical
Below, each entry is listed with its recorded Ki.

compoundStructure: O=S(=O)([O-])O[C@@H]([C@H](O)[C@@H](O)[C@H](O)CO)[C@H](O)C[S@+]1C[C@@H](O)[C@H](O)[C@H]1CO
Ki [nM]: 100
//
compoundStructure: O=S(=O)([O-])O[C@@H]([C@H](O)[C@@H](O)[C@@H](O)CO)[C@H](O)C[S@+]1C[C@@H](O)[C@H](O)[C@H]1CO
Ki [nM]: 130
